Molecular target: E3 ubiquitin-protein ligase XIAP (Homo sapiens)
Sequence (P98170 whole entry, the tested form may be a part): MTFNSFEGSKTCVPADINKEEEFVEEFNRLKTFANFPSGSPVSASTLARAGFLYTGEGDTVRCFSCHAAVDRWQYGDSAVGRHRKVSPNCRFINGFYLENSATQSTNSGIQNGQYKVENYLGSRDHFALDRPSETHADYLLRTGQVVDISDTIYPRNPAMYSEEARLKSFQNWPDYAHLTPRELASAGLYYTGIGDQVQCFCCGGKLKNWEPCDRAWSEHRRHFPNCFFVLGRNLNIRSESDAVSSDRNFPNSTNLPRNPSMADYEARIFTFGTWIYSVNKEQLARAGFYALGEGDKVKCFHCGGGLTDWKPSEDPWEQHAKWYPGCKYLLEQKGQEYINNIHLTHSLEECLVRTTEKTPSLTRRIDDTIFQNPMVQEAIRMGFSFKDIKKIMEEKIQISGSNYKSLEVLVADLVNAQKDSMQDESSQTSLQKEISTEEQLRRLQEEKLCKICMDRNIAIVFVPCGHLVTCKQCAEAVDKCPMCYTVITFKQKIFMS
Experiment: Dissociation constant against BIR3 domain of X-linked IAP in fluorescence polarization anisotropy competition assay
quantity_kind: Kd

q: Any idea what Kd came out for "C[C@H](N)C(=O)Nc1nc(-c2cccc(Cc3ccccc3)c2)c(Cc2ccccc2)s1" on E3 ubiquitin-protein ligase XIAP (Homo sapiens)?
a: > 100 µM
